- assay-procedure: AUC (0 to infinity) in Sprague-Dawley rat at 1 mg/kg, iv administered as bolus dose by LC-MS/MS analysis
- Assay type: ADME, organism-based
- Parameters: dose 1 mg/kg, route intravenous, time infinity
- study-conditions: in vivo
value-type: AUC(0-inf) (µM·h)

smiles-str | reported-result
CNc1ccnc(Nc2ccc3sc(Cl)c(-c4cc(-c5c(C)ncn(C)c5=O)cnc4Cl)c3c2)n1 | 0.396

----------
- system-under-test: Histone-lysine N-methyltransferase, H3 lysine-79 specific (Homo sapiens)
- Sequence (Q8TEK3 whole entry): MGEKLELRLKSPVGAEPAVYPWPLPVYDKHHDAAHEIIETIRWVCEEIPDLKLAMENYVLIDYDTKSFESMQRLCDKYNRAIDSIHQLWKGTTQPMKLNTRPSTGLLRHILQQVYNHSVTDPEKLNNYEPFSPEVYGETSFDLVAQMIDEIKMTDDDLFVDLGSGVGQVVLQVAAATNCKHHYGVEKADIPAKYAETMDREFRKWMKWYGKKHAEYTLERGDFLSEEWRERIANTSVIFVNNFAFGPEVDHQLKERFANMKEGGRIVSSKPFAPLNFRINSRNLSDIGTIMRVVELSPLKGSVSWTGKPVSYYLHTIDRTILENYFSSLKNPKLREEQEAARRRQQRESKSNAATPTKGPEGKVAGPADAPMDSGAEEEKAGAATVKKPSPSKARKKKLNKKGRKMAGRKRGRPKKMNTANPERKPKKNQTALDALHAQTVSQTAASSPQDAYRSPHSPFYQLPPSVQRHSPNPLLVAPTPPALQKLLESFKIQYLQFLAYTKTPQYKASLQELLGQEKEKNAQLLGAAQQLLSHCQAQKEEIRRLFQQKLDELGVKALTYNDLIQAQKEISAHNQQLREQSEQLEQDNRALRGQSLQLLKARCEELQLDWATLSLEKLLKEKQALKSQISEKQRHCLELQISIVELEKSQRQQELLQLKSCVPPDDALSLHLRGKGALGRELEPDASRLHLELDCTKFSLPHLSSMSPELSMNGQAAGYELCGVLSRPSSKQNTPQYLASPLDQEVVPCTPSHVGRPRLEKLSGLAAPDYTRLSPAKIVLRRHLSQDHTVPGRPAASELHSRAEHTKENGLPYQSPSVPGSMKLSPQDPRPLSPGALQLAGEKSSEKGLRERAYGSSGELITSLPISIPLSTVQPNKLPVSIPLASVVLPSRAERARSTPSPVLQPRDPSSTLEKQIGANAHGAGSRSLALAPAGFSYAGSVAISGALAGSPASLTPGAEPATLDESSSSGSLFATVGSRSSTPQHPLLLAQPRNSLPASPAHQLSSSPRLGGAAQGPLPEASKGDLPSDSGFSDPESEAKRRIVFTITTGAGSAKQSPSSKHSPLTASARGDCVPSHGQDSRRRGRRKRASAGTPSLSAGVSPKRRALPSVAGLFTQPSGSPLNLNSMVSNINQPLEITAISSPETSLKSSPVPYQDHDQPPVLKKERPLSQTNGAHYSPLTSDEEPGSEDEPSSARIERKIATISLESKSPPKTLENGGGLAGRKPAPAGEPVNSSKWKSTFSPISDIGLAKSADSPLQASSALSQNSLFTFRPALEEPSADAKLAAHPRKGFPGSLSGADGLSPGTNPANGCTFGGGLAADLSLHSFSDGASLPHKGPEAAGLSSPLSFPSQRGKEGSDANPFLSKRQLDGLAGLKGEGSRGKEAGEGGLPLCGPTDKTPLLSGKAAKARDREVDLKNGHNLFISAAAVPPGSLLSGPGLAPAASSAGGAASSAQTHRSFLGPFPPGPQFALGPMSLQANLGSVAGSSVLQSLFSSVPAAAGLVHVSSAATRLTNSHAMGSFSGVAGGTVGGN

smiles-str | Ki
CNc1ccnc(Nc2ccc3sc(Cl)c(-c4cc(-c5c(C)ncn(C)c5=O)cnc4Cl)c3c2)n1 | 0.36 nM
CNc1ccnc(Nc2ccc3cc(C)n(-c4ccccc4Oc4cnc5c(c4)ncn5C)c3c2)n1 | 0.08 nM

----------
- assay-procedure: Half life in Sprague-Dawley rat at 1 mg/kg, iv administered as bolus dose by LC-MS/MS analysis
- Type: ADME, organism-based
- study-conditions: in vivo
value-type: half-life (h)

smiles-str | unit-info | reported-result
CNc1ccnc(Nc2ccc3sc(Cl)c(-c4cc(-c5c(C)ncn(C)c5=O)cnc4Cl)c3c2)n1 | h | 1.7

----------
- assay-procedure: Clearance in Sprague-Dawley rat at 1 mg/kg, iv administered as bolus dose measured up to 48 hrs by LC-MS/MS analysis
- Format: ADME, organism-based
- study-conditions: in vivo

smiles-str | clearance / mL/min/kg
CNc1ccnc(Nc2ccc3sc(Cl)c(-c4cc(-c5c(C)ncn(C)c5=O)cnc4Cl)c3c2)n1 | 84

----------
- assay-procedure: Oral bioavailability in Sprague-Dawley rat at 15 mg/kg administered via gastric intubation measured up to 48 hrs by LC-MS/MS analysis
- Type: ADME, organism-based
- study-conditions: in vivo

smiles-str | unit-info | bioavailability
CNc1ccnc(Nc2ccc3sc(Cl)c(-c4cc(-c5c(C)ncn(C)c5=O)cnc4Cl)c3c2)n1 | % | 40

----------
- assay-procedure: Tmax in Sprague-Dawley rat at 15 mg/kg, po administered via gastric intubation by LC-MS/MS analysis
- Assay type: ADME, organism-based
- study-conditions: in vivo

smiles-str | Tmax, h
CNc1ccnc(Nc2ccc3sc(Cl)c(-c4cc(-c5c(C)ncn(C)c5=O)cnc4Cl)c3c2)n1 | 3.5

----------
- assay-procedure: AUC (0 to infinity) in Sprague-Dawley rat at 15 mg/kg, po administered via gastric intubation by LC-MS/MS analysis
- Type: ADME, organism-based
- Design: dose 15 mg/kg, route oral, time infinity
- study-conditions: in vivo
value-type: AUC(0-inf) (µM·h)

smiles-str | value-type | unit-info | reported-result
CNc1ccnc(Nc2ccc3sc(Cl)c(-c4cc(-c5c(C)ncn(C)c5=O)cnc4Cl)c3c2)n1 | AUC(0-inf) | µM·h | 2.37

----------
- system-under-test: UniProtKB Q8TEK3
- assay-procedure: Inhibition of DOT1L (2 to 416 residues) (unknown origin) using biotinylated nucleosomes as substrate preincubated for 30 mins followed by substrate addition in presence of [3H-Me]SAM by scintillation proximity assay

smiles-str | unit-info | IC50
CNc1ccnc(Nc2ccc3sc(Cl)c(-c4cc(-c5c(C)ncn(C)c5=O)cnc4Cl)c3c2)n1 | nM | 1.4
O=C(Cn1nnc(COc2ccccc2Cl)n1)NNC(=O)Nc1ccc(Cl)cc1 | nM | 14000
Cc1cc2ccc(Nc3nccc(N)n3)cc2n1-c1cccnc1Cl | nM | 4300
CNc1ccnc(Nc2ccc3cc(C)n(-c4ccccc4Oc4cnc5c(c4)ncn5C)c3c2)n1 | nM | 0.4
CCNC(=O)Nc1ccc2ccn(-c3ccccc3Cl)c2c1 | nM | 40000
O=C(Cn1nnnc1COc1ccccc1Cl)NNC(=O)Nc1ccc(Cl)cc1 | nM | 4400
CNc1ccnc(Nc2ccc3cc(C)n(-c4cccnc4Cl)c3c2)n1 | nM | 280
Cc1cc2ccc(Nc3nc(=O)cc[nH]3)cc2n1-c1cccnc1Cl | nM | 1100
CNc1ccnc(Nc2ccc3cc(C)n(-c4cc(-c5c(C)ccn(C)c5=O)cnc4Cl)c3c2)n1 | nM | 10
O=C(Cn1nnnc1-c1ccccc1Cl)NNC(=O)Nc1ccc2ccn(-c3ccccc3Cl)c2c1 | nM | 20
Cc1cc2ccc(Nc3cccnn3)cc2n1-c1cccnc1Cl | nM | 28000
Cc1cc2ccc(NC3=NC(=O)CN3)cc2n1-c1cccnc1Cl | nM | 4100
CNc1ccnc(Nc2ccc3cc(C)n(-c4ccccc4Oc4ccccc4)c3c2)n1 | nM | 150

----------
- system-under-test: UniProtKB Q8TEK3
- assay-procedure: Inhibition of DOT1L in human MOLM13 cells assessed as suppression of HoxA9 gene after 72 hrs by luciferase reporter gene assay
- Format: cell-based

smiles-str | IC50 [nM]
CNc1ccnc(Nc2ccc3sc(Cl)c(-c4cc(-c5c(C)ncn(C)c5=O)cnc4Cl)c3c2)n1 | 384
CNc1ccnc(Nc2ccc3cc(C)n(-c4ccccc4Oc4cnc5c(c4)ncn5C)c3c2)n1 | 340
